# System: NCI-H460 lung
# assay-name: NCI tumour cell line growth inhibition, 48 h
assay-readout: TGI (µM)
Numbers only, in µM.

// solved cases for TGI follow
compound | TGI, µM
C=C1C(=O)OC2/C=C(\C)C(OC(C)=O)C3OC3C(C)(O)CC(OC(=O)/C(C)=C/C)C12 (configuration not stated) | 29.1
C=CCC1(O)c2ccccc2C(=O)c2c(O)ccc(O)c21 (configuration not stated) | 18.3
S=c1sc2c(Cl)ncnc2n1-c1ccccc1 | 32.6
COc1ccc(/C(=N/NC(N)=O)C2(O)C(=O)Nc3ccc([N+](=O)[O-])cc32)cc1 (configuration not stated) | 39.4
C/C=C/[C@@]1(OC(=O)c2ccccc2)C[C@@H]2CCCC[C@@H]21 | 34.2

IN: GET /values?readout=TGI&item= `COC(=O)[C@@H](NC(=O)NC(=O)NC(=O)CI)C(C)C`
OUT: 38.2

* * *

Could you please report measured TGI for the items listed next?
# System: COLO 205 colon
# assay-name: NCI tumour cell line growth inhibition, 48 h
Numbers only, in µM.

Solved entries:
compound | TGI (µM)
O=C(c1ccccc1)c1c(NCC(O)CN2CCCC2)n(Cc2ccccc2)c(=O)n(Cc2ccccc2)c1=O (stereo not given) | 31.2
C=CCC1(O)c2ccccc2C(=O)c2c(O)ccc(O)c21 (stereo not given) | 26.9
C=CCNC(=S)Nc1sc2c(c1C(=O)OCC)CC(C)CC2 (stereo not given) | 35.6
COc1cccc([C@H]2CC(=O)c3cc4c(cc3N2)OCO4)c1 | 1.22

# next compound below
IN: Tell me reported TGI for `COc1cc2c(/C=N\N=C(N)N)c(Cl)[nH]c2cc1C` , tested with COLO 205 colon.
OUT: 8.82

* * *

# Tested on: OVCAR-5 ovarian
# assay-name: NCI tumour cell line growth inhibition, 48 h
What TGI was measured for each of the following?

molecule | result
CC(=O)OCC1OC(Nc2[nH]c(=O)n(C)c(=O)c2-c2csc(N)n2)C(OC(C)=O)C(OC(C)=O)C1OC(C)=O (configuration not stated) | > 100 µM
O=C(CP(c1ccccc1)c1ccccc1)c1cccc(C(=O)CP(c2ccccc2)c2ccccc2)c1 | > 100 µM
CC1=C(C(=O)NCc2ccccc2)C(c2ccc(C3C(C(=O)NCc4ccccc4)=C(C)NC(C)=C3C(=O)NCc3ccccc3)cc2)C(C(=O)NCc2ccccc2)=C(C)N1 | 39.9 µM

Hi there! I need TGI for each item below, if you can.
1. CC[C@@]1(O)C(=O)OCc2c1cc1n(c2=O)Cc2c-1nc1ccccc1c2/C=N\NC(=O)C(N)CC(C)C (some centres not stated)
2. CC1=NN(C(=O)c2ccccc2O)C(=O)/C1=C/c1ccc([N+](=O)[O-])cc1
3. COc1ccc(-c2[nH]ncc2-c2cc3c(c(OC)c2)OCC(=O)N3)cc1
4. Nc1ncnc2c1ncn2C1OC(COP(=O)(O)CP(=O)(O)O)C(O)C1O (configuration not stated)
5. O=[N+]([O-])c1ccc(Nc2ccccc2-c2ccccc2)c2nonc12
6. Nc1ccn(C2OC(CO)C(O)C2F)c(=O)n1 (configuration not stated)

OUT:
1. > 68.6 µM
2. > 100 µM
3. > 100 µM
4. > 100 µM
5. 62.9 µM
6. > 5000 µM

* * *

# Tested on: IGROV1 ovarian
# assay-name: NCI tumour cell line growth inhibition, 48 h
assay-readout: TGI

compound | TGI
Cc1ccc(C)c(NC(=O)C(=O)CC(=O)C2CCOC2=O)c1 (stereo unspecified) | > 100 µM

Batch lookup, TGI per entry.
1. O=C(Cc1ccccc1)NCCc1ccc(O)c(O)c1
2. O=C(O)CN(c1ccccc1)S(=O)(=O)c1ccc(NC(=O)c2ccccc2)cc1
3. COc1cccc2c1OC1c3ccccc3OCC1C2 (stereo unspecified)
4. COc1ccc(-c2nc(N)c(C#N)c3c2CCS(=O)(=O)c2ccc(C)cc2-3)cc1OC

OUT:
1: > 100 µM; 2: > 100 µM; 3: > 100 µM; 4: > 100 µM

* * *

# System: HL-60(TB) leukemia
# assay-name: NCI tumour cell line growth inhibition, 48 h; in the data active means GI50 below about 0.43 µM; inactive means the rest
Bench note: report the call from true = active, false = inactive

These solved cases illustrate the format of a correct answer.
molecule | class
CN(C)CCCOc1ccccc1NC1=C(Cl)C(=O)C(Nc2ccccc2OCCCN(C)C)=C(Cl)C1=O | true
COc1cc(-c2nn3c(/C=C4/C(=O)Nc5ccccc54)c(-c4ccc(C)cc4)nc3s2)cc(OC)c1OC | false

Consider the additional molecule presented here.
IN: Recorded test outcome, item Cc1[nH]ncc1-c1cc2nc(C3CC4CCN3CC4)[nH]c(=O)c2s1 (stereo not drawn)
OUT: false

* * *

# System: NCI-H23 lung
# assay-name: NCI tumour cell line growth inhibition, 48 h
assay-readout: TGI

Study these solved cases before continuing.
molecule | result
COc1cc2c(cc1OC)C13CCN4C=C5CCOC6CC(=O)N2C1C6C5CC43 (stereo not drawn) | > 100 µM
COc1cc2c(cc1O)C=NCC2 | > 100 µM
CCOc1cc2c(cc1O)/C(=N\N)C[C@@H]1[C@@H]2CC[C@]2(C)[C@@H](O)CC[C@@H]12 | 92.1 µM
CC[C@@]1(O)C(=O)OCc2c1cc1n(c2=O)Cc2c-1nc1ccccc1c2/C=N\NC(=O)C(N)CC(C)C (stereo partly drawn) | 0.112 µM
CC1(C)O[C@H]2Cn3c(c(C#N)c4ccccc43)[C@H]2O1 | > 100 µM

Value sought for every listed molecule: TGI.
1. CN(C)CCNc1ccc(C(=O)NCCCN(C)CCCNC(=O)c2ccc(NCCN(C)C)c3c(=O)c4ccccc4[nH]c23)c2[nH]c3ccccc3c(=O)c12
2. N#Cc1cc(C#N)c(Cl)nc1N
3. CC1CC2C3CC(F)C4=CC(=O)C=CC4(C)C3(F)C(O)CC2(C)C1(O)C(=O)COC(=O)C(C)(C)C (stereo not drawn)
4. CCOc1ccccc1NC(=O)CCC(=O)OC
5. Cn1cnc([N+](=O)[O-])c1Sc1nc2cc(Cl)c(F)cc2[nH]1
6. O=C(COc1ccc(OCC(=O)N2C(=O)CC(=O)N(c3ccccc3)C2=S)cc1)N1C(=O)CC(=O)N(c2ccccc2)C1=S
7. C=CCC1(O)c2ccccc2C(=O)c2c(O)ccc(O)c21 (stereo not drawn)
8. CC(C)=CCN=C(N)N

OUT:
1: 2.78 µM; 2: > 10 µM; 3: > 100 µM; 4: > 100 µM; 5: 31.3 µM; 6: > 100 µM; 7: 56 µM; 8: > 100 µM

* * *

# Tested on: MCF7 breast
# assay-name: NCI tumour cell line growth inhibition, 48 h
assay-readout: TGI

Before answering, review these 2 worked examples.
compound | TGI
CCc1nn(CN2CCN(C)CC2)c(=S)n1/N=C\c1ccc(-c2ccc([N+](=O)[O-])cc2)o1 | > 100 µM
O=C1c2ccccc2C2CNC1(O)c1ccccc12 (stereo not drawn) | > 100 µM

Now for the compound whose TGI we want.
IN: Which TGI value belongs to O=C(c1ccccc1)c1ccc2c(c1)nc1n2C(c2c(Cl)cccc2Cl)SC1 (stereo not drawn) ?
OUT: > 100 µM

* * *

# Test system: SF-539 CNS
# assay-name: NCI tumour cell line growth inhibition, 48 h
assay-readout: GI50

Reference set, count: 3
compound | GI50
COc1cc2c(/C=N\N=C(N)N)c(Cl)[nH]c2cc1C | 10.2 µM
O=C(/C=C/c1ccc(B(O)O)cc1)/C=C/c1ccc(B(O)O)cc1 | 2.03 µM
CC1=C([Se]CC(OC(=O)[C@@H](CSSC(C)(C)C)NC(=O)OC(C)(C)C)C(=O)NC(C)(C)C)C(=O)c2ccccc2C1=O (some centres undefined) | 1.43 µM

Turning now to a further compound:
IN: Which measured GI50 value corresponds to COc1cccc(C2CC(c3cc(OC)c(OC)c(OC)c3)=NN2)c1 (centres undefined) ?
OUT: 5.33 µM

* * *

# Test system: UACC-62 melanoma
# assay-name: NCI tumour cell line growth inhibition, 48 h
assay-readout: TGI

Solved entries:
molecule | TGI
O=C(O)CSCc1cccc2ccccc12 | > 100 µM
Cc1c2cc[nH]c(C(F)(F)F)c2cc2c1nc1ccccc12 | > 125 µM
COc1c2c(c3c(c1C1OC(C)[C@@H](C)O1)CC(C)(C)O3)C(=O)c1ccccc1C2=O (stereo partly drawn) | > 100 µM
Nc1nc(N)c2ncn(CC3CCC(CO)C3)c2n1 (stereo not drawn) | > 100 µM
CCOC(=O)CCCn1nnc(C(=O)OCC)c1C(=O)OCC | > 100 µM
CCOc1ccccc1NC(=O)CCC(=O)OC | > 100 µM
COC(=O)N1CC2(CO)C3CC=C(C(=O)Nc4ccccc4Br)C2C1C3Br (stereo not drawn) | > 50 µM
C=C(CNC(=O)Nc1ccc(-c2ccccc2)cc1)c1ccc(C(=O)Nc2ccccc2N)cc1 | > 100 µM

Look up TGI for the entries below, preserving their order.
1. O=C(NCCCCCCCCNC(=O)c1cnc2ccccc2n1)c1cnc2ccccc2n1
2. COc1cccc2c1C(=O)c1c(O)c3c(c(O)c1C2=O)CC(O)(C(C)=O)CC3OC1CC(N)C(O)C(C)O1 (stereo not drawn)
3. O=C(CSCC(=O)N/N=C/c1cc(I)cc(I)c1O)N/N=C/c1cc(I)cc(I)c1O
4. S=c1sc2c(Cl)ncnc2n1-c1ccccc1
5. CCCCCCCCCCCOC(=S)NC(C)C

OUT:
1: > 100 µM; 2: 0.0734 µg/mL; 3: 31.9 µM; 4: 21.4 µM; 5: 31.1 µM
